Test system: Rat Paw Edema
Assay Method Text: Rat paw edema assay (carrageenan-induced)
Assay type: in vivo, Male Sprague-Dawley rats
Study Conditions: po, 1 hr before subplantar carrageenan, paw volume 3 hr later
Flag rule - ED30 less than 0.6 mg/kg flags y; the remaining entries get n.

smiles_notation=CS(=O)(=O)c1ccc(C2=C(c3ccccc3)C(=O)OC23CCCC3)cc1 cat=y
smiles_notation=CS(=O)(=O)c1ccc(C2=C(c3ccccc3)C(=O)OC2(CF)CF)cc1 cat=n
smiles_notation=CC1(C)CC(c2ccc(S(C)(=O)=O)cc2)=C(c2ccccc2)C1=O cat=n

stdin: Is ED30 of `CC1(C)OC(=O)C(c2ccccc2)=C1c1ccc(S(C)(=O)=O)cc1` strictly below 0.6 mg/kg?
stdout: y

stdin: ED30 strictly < 0.6 mg/kg for this compound? `CS(=O)(=O)c1ccc(C2=C(c3ccccc3)C(=O)OC23CC3)cc1`
stdout: y

stdin: Item `COc1cccc(C2=C(c3ccc(S(C)(=O)=O)cc3)C(C)(C)OC2=O)c1` : ED30 beneath 0.6 mg/kg, strictly?
stdout: y

* * *

Assay System: Cox-2 (Homo sapiens)
Construct: endogenous in cells
Sequence (P35354 18-604 limits assumed): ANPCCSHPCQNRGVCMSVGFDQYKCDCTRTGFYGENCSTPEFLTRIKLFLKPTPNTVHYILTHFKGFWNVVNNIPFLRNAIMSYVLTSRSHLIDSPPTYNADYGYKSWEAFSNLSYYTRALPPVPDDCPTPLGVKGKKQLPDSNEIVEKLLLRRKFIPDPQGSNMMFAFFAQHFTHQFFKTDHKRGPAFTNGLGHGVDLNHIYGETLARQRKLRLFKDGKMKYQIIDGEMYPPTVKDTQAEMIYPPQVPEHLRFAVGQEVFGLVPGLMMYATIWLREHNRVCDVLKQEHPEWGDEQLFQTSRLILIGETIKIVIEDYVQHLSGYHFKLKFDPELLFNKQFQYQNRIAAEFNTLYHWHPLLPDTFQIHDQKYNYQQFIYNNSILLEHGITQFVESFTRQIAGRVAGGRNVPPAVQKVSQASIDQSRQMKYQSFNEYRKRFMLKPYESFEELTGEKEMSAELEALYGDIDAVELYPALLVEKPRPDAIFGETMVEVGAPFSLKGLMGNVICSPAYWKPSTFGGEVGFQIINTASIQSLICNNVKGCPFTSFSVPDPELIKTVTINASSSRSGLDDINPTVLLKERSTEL
Assay Method Text: Human whole blood assay, Cox-2 (LPS-induced PGE2 production)
Study Conditions: LPS 100 µg/ml, 24 hours at 37 °C, PGE2 by radioimmunoassay, read-out: HWB Cox-2 IC50
Reported Endpoint: IC50
Kindly write the number and append the unit.

compound="CS(=O)(=O)c1ccc(C2=C(c3ccccc3)C(=O)OC23CC3)cc1 [Example 13]" assay_system="Cox-2 (Homo sapiens)" reported_endpoint=IC50 result="600 nM"
compound="CC1(C)OC(=O)C(c2ccccc2)=C1c1ccc(S(C)(=O)=O)cc1 [Example 4]" assay_system="Cox-2 (Homo sapiens)" reported_endpoint=IC50 result="170 nM"

stdin: Need IC50, item COc1cccc(C2=C(c3ccc(S(C)(=O)=O)cc3)C(C)(C)OC2=O)c1 [Example 2]
stdout: 810 nM

stdin: Looking for the measured IC50 of CS(=O)(=O)c1ccc(C2=C(c3ccccc3)C(=O)OC2(CF)CF)cc1 [Example 14] , can you help?
stdout: 1100 nM

stdin: Name the recorded IC50 for CS(=O)(=O)c1ccc(C2=C(c3ccccc3)C(=O)OC23CCCC3)cc1 [Example 10] .
stdout: 370 nM

stdin: Entry CC1(C)CC(c2ccc(S(C)(=O)=O)cc2)=C(c2ccccc2)C1=O [Example 11] has what IC50?
stdout: 60 nM

* * *

Assay System: Cox-1 (Homo sapiens)
Construct: platelets in whole blood contain a large amount of the Cox-1 enzyme; endogenous in cells
Sequence (P23219 24-599): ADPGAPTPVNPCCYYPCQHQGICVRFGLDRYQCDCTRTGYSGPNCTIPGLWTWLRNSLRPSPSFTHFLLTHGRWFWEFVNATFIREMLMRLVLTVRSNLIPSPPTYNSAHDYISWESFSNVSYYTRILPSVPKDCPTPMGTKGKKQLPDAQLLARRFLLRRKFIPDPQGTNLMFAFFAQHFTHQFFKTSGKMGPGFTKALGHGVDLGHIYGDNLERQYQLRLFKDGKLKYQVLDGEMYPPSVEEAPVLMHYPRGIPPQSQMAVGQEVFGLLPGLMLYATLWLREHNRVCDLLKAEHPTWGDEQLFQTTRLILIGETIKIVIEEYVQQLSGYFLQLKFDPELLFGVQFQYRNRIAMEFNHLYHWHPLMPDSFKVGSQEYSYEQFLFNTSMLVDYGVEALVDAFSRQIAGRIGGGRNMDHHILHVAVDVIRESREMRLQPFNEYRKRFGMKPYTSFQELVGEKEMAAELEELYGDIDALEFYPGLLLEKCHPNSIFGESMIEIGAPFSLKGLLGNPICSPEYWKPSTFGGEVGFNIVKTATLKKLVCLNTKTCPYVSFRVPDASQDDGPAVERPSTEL
Assay Method Text: Human whole blood assay, Cox-1 (clotting-induced TxB2 production)
Study Conditions: clotting 1 hour at 37 °C, TxB2 by enzyme immunoassay, read-out: HWB Cox-1 IC50
pIC50: −log10 of the molar value.
Reported Endpoint: pIC50

stdin: Quick check: pIC50 of `CS(=O)(=O)c1ccc(C2=C(c3ccccc3)C(=O)OC23CCCC3)cc1` ?
stdout: 4.52

stdin: pIC50 for `CS(=O)(=O)c1ccc(C2=C(c3ccccc3)C(=O)OC23CC3)cc1` ?
stdout: < 4.52

stdin: What pIC50 value was documented for this molecule, `CS(=O)(=O)c1ccc(C2=C(c3ccccc3)C(=O)OC2(CF)CF)cc1` ?
stdout: < 4.52

stdin: What value of pIC50 has been reported for the following molecule? `CC1(C)CC(c2ccc(S(C)(=O)=O)cc2)=C(c2ccccc2)C1=O`
stdout: 5.66

stdin: What does the data say about its pIC50? Entry: `COc1cccc(C2=C(c3ccc(S(C)(=O)=O)cc3)C(C)(C)OC2=O)c1`
stdout: < 4.52

stdin: Value lookup for pIC50; key = `CC1(C)OC(=O)C(c2ccccc2)=C1c1ccc(S(C)(=O)=O)cc1`
stdout: < 4.52

Where these numbers come from: patent EP0799218B1
